# measured-target: K-Ras G12V (Homo sapiens, UniProt P01116, G12V)
# Sequence (P01116 1-188 isoform P01116-2 G12V): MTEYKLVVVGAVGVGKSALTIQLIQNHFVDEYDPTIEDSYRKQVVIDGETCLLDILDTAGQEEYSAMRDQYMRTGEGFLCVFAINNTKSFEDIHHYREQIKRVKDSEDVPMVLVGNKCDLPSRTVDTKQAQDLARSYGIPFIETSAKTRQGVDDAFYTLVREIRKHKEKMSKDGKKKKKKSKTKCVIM
# protocol-text: HTRF resonance energy transfer assay, K-Ras G12V / SOS1 interaction
# condition-context: HTRF assay of Example 5; read-out: IC50 against K-Ras G12V
reported-endpoint: IC50

The cases that follow already have their IC50 on record.
compound | reported-endpoint | obs-value
COCC(=O)N1CCC(N2CCOc3c(Cl)c(-c4ccc(F)c5sc(N)c(C#N)c45)c(F)c4nc(OC[C@@]56CCCN5C[C@H](F)C6)nc2c34)C1 (some centres unmarked) | IC50 | < 100 nM
COC1CN(C(=O)N2CCC(N3CCOc4c(Cl)c(-c5ccc(F)c6sc(N)c(C#N)c56)c(F)c5nc(OC[C@@]67CCCN6C[C@H](F)C7)nc3c45)C2)C1 (some centres unmarked) | IC50 | < 100 nM
N#Cc1c(N)sc2c(F)ccc(-c3c(Cl)c4c5c(nc(OC[C@@]67CCCN6C[C@H](F)C7)nc5c3F)N(CC(F)F)C(C3CNC3)CO4)c12 (some centres unmarked) | IC50 | < 100 nM
N#Cc1c(N)sc2c(F)ccc(-c3c(Cl)c4c5c(nc(OC[C@@]67CCCN6C[C@H](F)C7)nc5c3F)N(C3CCN(C=O)C3)CCO4)c12 (some centres unmarked) | IC50 | < 100 nM

Now turn to the next compound.
### Prompt I have this compound here, N#Cc1c(N)sc2c(F)ccc(-c3c(Cl)c4c5c(nc(OC[C@@]67CCCN6C[C@H](F)C7)nc5c3F)N(C3CCN(C(=O)C[C@H]5CCCO5)C3)CCO4)c12 (some centres unmarked) , and I need its recorded IC50.
### Response < 100 nM

---

# measured-target: K-Ras G12D (Homo sapiens, UniProt P01116, G12D)
# Sequence (P01116 1-188 isoform P01116-2 G12D): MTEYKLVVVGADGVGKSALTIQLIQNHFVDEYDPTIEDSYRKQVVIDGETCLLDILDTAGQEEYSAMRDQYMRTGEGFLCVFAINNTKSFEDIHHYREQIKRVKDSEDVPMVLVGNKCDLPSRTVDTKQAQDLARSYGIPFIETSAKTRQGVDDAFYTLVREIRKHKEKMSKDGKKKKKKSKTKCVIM
# protocol-text: HTRF resonance energy transfer assay, K-Ras G12D / SOS1 interaction
# condition-context: HTRF assay of Example 5; read-out: IC50 against K-Ras G12D
# From the text: This assay can be also used to assess a selective inhibition or reduction of signaling output of a mutant Ras protein relative to a wildtype, or relative to a different mutant Ras protein. For example, the equilibrium interaction of wildtype Kras or K-Ras mutant (e.g., wildtype or a mutant thereof) with SOS1 (e.g., hSOS1) can be assessed as a proxy or an indication for a subject compound's ability to bind and inhibit Ras protein. […]
reported-endpoint: IC50

molecule | obs-value
N#Cc1c(N)sc2c(F)ccc(-c3c(Cl)c4c5c(nc(OC[C@@]67CCCN6C[C@H](F)C7)nc5c3F)N(CCC(F)F)[C@@H](CNC=O)CO4)c12 [Compound 614] | < 100 nM

### Prompt Field request: IC50 | item: C[C@H](Oc1nc2c3c(c(Cl)c(-c4ccc(F)c5sc(N)c(C#N)c45)c(F)c3n1)OCCN2C1CCN(C(=O)c2ccnn2C)CC1)[C@@H]1CCCN1C [Compound 1012]
### Response < 100 nM

### Prompt I would be grateful if you could share the reported IC50 for C[C@H]1CN([C@@H]2CCOC2)c2nc(OC[C@@]34CCCN3C[C@H](F)C4)nc3c(F)c(-c4ccc(F)c5sc(N)c(C#N)c45)c(Cl)c(c23)O1 [Compound 958] .
### Response < 100 nM

---

# measured-target: K-Ras WT (Homo sapiens, UniProt P01116)
# Construct: made in house; host or cells: E. coli BL21 (DE3)
# Sequence (P01116 1-188 isoform P01116-2): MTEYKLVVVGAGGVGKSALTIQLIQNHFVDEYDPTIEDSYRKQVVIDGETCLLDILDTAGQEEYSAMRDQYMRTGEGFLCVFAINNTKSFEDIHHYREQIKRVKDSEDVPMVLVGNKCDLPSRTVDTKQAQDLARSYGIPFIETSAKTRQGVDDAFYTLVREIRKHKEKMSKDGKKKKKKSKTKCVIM
# protocol-text: HTRF resonance energy transfer assay, K-Ras WT / SOS1 interaction
# Format: biochemical
# condition-context: HTRF assay of Example 5; read-out: IC50 against K-Ras WT
pIC50: −log10 of the molar value.
reported-endpoint: pIC50

compound | obs-value
N#Cc1c(N)sc2c(F)ccc(-c3c(Cl)c4c5c(nc(OC[C@@]67CCCN6C[C@H](F)C7)nc5c3F)N(CC(F)F)[C@@H](C3CCC3)CO4)c12 | > 7.00

### Prompt Fill in: pIC50 of N#Cc1c(N)sc2c(F)ccc(-c3c(Cl)c4c5c(nc(OC[C@@]67CCCN6C[C@H](F)C7)nc5c3F)N(CC3CC3(F)F)CCO4)c12 (stereo partly drawn) is ___
### Response > 7.00

### Prompt I'd like to know its pIC50. The compound in question is N#Cc1c(N)sc2c(F)ccc(-c3c(Cl)c4c5c(nc(OC[C@@]67CCCN6C[C@H](F)C7)nc5c3F)N(CC3(O)CC3)CCO4)c12
### Response > 7.00

---

Below, each entry is listed with its recorded IC50.
# measured-target: K-Ras G12V (Homo sapiens, UniProt P01116, G12V)
# protocol-text: HTRF resonance energy transfer assay, K-Ras G12V / SOS1 interaction
# condition-context: HTRF assay of Example 5; read-out: IC50 against K-Ras G12V

### Prompt Reported IC50 for C[C@@H]1CN(CC(F)F)c2nc(OC[C@@]34CCCN3C[C@H](F)C4)nc3c(F)c(-c4ccc(F)c5sc(N)c(C#N)c45)c(Cl)c(c23)O1 : what is it?
### Response < 0.1 µM

### Prompt Dear colleague, I am looking for the recorded IC50 of the following compound: N#Cc1c(N)sc2c(F)ccc(-c3c(Cl)c4c5c(nc(OC[C@@]67CCCN6C[C@H](F)C7)nc5c3F)N(CC(F)F)C(C3CCCN3)CO4)c12 (stereo partly drawn)
### Response < 0.1 µM

### Prompt Value lookup for IC50; key = N#Cc1c(N)sc2c(F)ccc(-c3c(Cl)c4c5c(nc(OC[C@@]67CCCN6C[C@H](F)C7)nc5c3F)N([C@H]3CCNC3)CCO4)c12
### Response < 0.1 µM

---

Each item that follows carries a reported pIC50.
# measured-target: K-Ras G12V (Homo sapiens, UniProt P01116, G12V)
# protocol-text: HTRF resonance energy transfer assay, K-Ras G12V / SOS1 interaction
# condition-context: HTRF assay of Example 5; read-out: IC50 against K-Ras G12V
pIC50: −log10 of the molar value.

Example cases with answers are listed next.
molecule | reported-endpoint | obs-value
N#Cc1c(N)sc2c(F)ccc(-c3c(Cl)c4c5c(nc(OC[C@@]67CCCN6C[C@H](F)C7)nc5c3F)NCCC(CO)O4)c12 (stereo partly drawn) | pIC50 | > 7.00
N#Cc1c(N)sc2c(F)ccc(-c3c(Cl)c4c5c(nc(OC[C@@]67CCCN6C[C@H](F)C7)nc5c3F)N(CC(F)F)[C@H](C(F)F)CO4)c12 | pIC50 | > 7.00

### Prompt // pIC50 lookup, key: C[C@H]1C[C@@H](N2CCOc3c(Cl)c(-c4ccc(F)c5sc(N)c(C#N)c45)c(F)c4nc(OC[C@@]56CCCN5C[C@H](F)C6)nc2c34)CN1
### Response > 7.00

---

# measured-target: K-Ras G12V (Homo sapiens, UniProt P01116, G12V)
# protocol-text: HTRF resonance energy transfer assay, K-Ras G12V / SOS1 interaction
# condition-context: HTRF assay of Example 5; read-out: IC50 against K-Ras G12V
# IC50 per record follows

compound | IC50
CC1COc2c(Cl)c(-c3ccc(F)c4sc(N)c(C#N)c34)c(F)c3nc(OC[C@@]45CCCN4C[C@H](F)C5)nc(c23)N1CC(F)F (single isomer, unassigned) [Compound 616] | < 100 nM
CC1Oc2c(Cl)c(-c3ccc(F)c4sc(N)c(C#N)c34)c(F)c3nc(OC[C@@]45CCCN4C[C@H](F)C5)nc(c23)N(CC(F)F)[C@H]1C(C)(C)O (stereo partly drawn) [Compound 810] | < 100 nM

Continue with the compound presented below.
### Prompt // returns reported IC50 for input C[C@H]1CN(CC2(N(C)C)CCC2)c2nc(OC[C@@]34CCCN3C[C@H](F)C4)nc3c(F)c(-c4ccc(F)c5sc(N)c(C#N)c45)c(Cl)c(c23)O1 [Compound 978]
### Response < 100 nM

---

Measured pIC50, listed per entry for reference.
# measured-target: K-Ras G12D (Homo sapiens, UniProt P01116, G12D)
# protocol-text: HTRF resonance energy transfer assay, K-Ras G12D / SOS1 interaction
# condition-context: HTRF assay of Example 5; read-out: IC50 against K-Ras G12D
pIC50: −log10 of the molar value.

molecule | obs-value
C=C[C@H]1COc2c(Cl)c(-c3ccc(F)c4sc(N)c(C#N)c34)c(F)c3nc(OC[C@@]45CCCN4C[C@H](F)C5)nc(c23)N1C1CCOC1 (single isomer, unassigned) [Compound 980] | > 7.00

### Prompt Need pIC50 of N#CCC(=O)N1CCC(N2CCOc3c(Cl)c(-c4ccc(F)c5sc(N)c(C#N)c45)c(F)c4nc(OC[C@@]56CCCN5C[C@H](F)C6)nc2c34)C1 (stereo partly drawn) , thanks.
### Response > 7.00

### Prompt What value of pIC50 has been reported for the following molecule? CO[C@@H](C)C(=O)N1CCC(N2CCOc3c(Cl)c(-c4ccc(F)c5sc(N)c(C#N)c45)c(F)c4nc(OC[C@@]56CCCN5C[C@H](F)C6)nc2c34)C1 (stereo partly drawn)
### Response > 7.00
